# System: HepG2
# protocol_notes: cytotoxicity call (relative viability < 0.9)
# assay_setup: 10 µM
Hit rate of the full screen: of about 39,000 compounds, about 3,300 (8.5%) were called active. The sample holds actives, similar compounds and a random draw of the others, so the mix is not that of the screen.
# output must be one of Yes (active), No (inactive)

Illustrative cases are given below, each with its answer.
>  <given_smiles>
COC(=O)c1c(C(=O)OC)c2n(c(=O)c1-c1ccccc1)[C@@H]1c3ccccc3O[C@@](CO)([C@@H]1CO)N2C

>  <group_label>
No

$$$$
>  <given_smiles>
COc1ccc(COCC23Oc4ccccc4[C@H]([C@H]2CO[Si](C)(C)C(C)(C)C)n2c(c4ccccc4c(-c4ccccc4)c2=O)N3C)cc1

>  <group_label>
Yes

$$$$
>  <given_smiles>
O=C(CN1CCOCC1)N[C@@H]1CC[C@@H](CCNC(=O)Nc2cc(F)ccc2F)O[C@@H]1CO

>  <group_label>
No

$$$$

Turning now to a further compound:
input: Entry COC(=O)c1c(C(=O)OC)c2n(c(=O)c1-c1ccccc1)[C@@H]1c3ccccc3O[C@@](COCc3ccc(OC)cc3)([C@@H]1COC(=O)c1ccccc1)N2C : call = ?
output: No

* * *

# Test system: HepG2
# protocol_notes: cytotoxicity call (relative viability < 0.9)
# assay_setup: 10 µM
Screen size: about 39,000 compounds; about 3,300 (8.5%) were called active. Many of the other results were omitted from the sample, so actives are more common in it than they were.
Hi! Could you answer with just one of these? YES (active), NO (inactive)

Example results:
>  <given_smiles>
Cc1ccc(S(=O)(=O)N(C)C[C@@H]2Oc3ccc(N(C)C)cc3CC(=O)N([C@H](C)CO)C[C@H]2C)cc1

>  <assay_system>
HepG2

>  <group_label>
NO

$$$$
>  <given_smiles>
Cc1ccc(S(=O)(=O)N(C)C[C@H]2Oc3ccc(N(C)C)cc3CC(=O)N([C@H](C)CO)C[C@H]2C)cc1

>  <assay_system>
HepG2

>  <group_label>
NO

$$$$
>  <given_smiles>
Cc1ccc(S(=O)(=O)N(C)C[C@@H]2Oc3ccc(N(C)C)cc3CC(=O)N([C@@H](C)CO)C[C@@H]2C)cc1

>  <assay_system>
HepG2

>  <group_label>
YES

$$$$

Turning to the following compound.
input: Which outcome was entered for the compound O=C(C[C@@H]1CC[C@@H]2[C@H](COC[C@@H](O)CN2S(=O)(=O)c2ccccc2F)O1)NCc1ccccc1F in this test?
output: NO

* * *

# Tested on: HepG2
# protocol_notes: cytotoxicity call (relative viability < 0.9)
# assay_setup: 10 µM
Hit rate of the full screen: of about 39,000 compounds, about 3,300 (8.5%) were called active. Only a selection was taken, and actives are over-represented in it overall.
Assign a class; possible classes are active, inactive

>  <given_smiles>
C[C@H](CO)N1C[C@H](C)[C@@H](CN(C)S(=O)(=O)c2ccc(F)cc2)OCCCC[C@H](C)Oc2ccc(NS(=O)(=O)c3ccc(Cl)cc3)cc2C1=O

>  <assay_system>
HepG2

>  <group_label>
inactive

$$$$
>  <given_smiles>
C[C@@H]1CN([C@H](C)CO)C(=O)c2cc(NS(=O)(=O)c3ccc(Cl)cc3)ccc2O[C@@H](C)CCCCO[C@H]1CN(C)S(=O)(=O)c1ccc(F)cc1

>  <assay_system>
HepG2

>  <group_label>
active

$$$$

input: For C[C@@H]1CCCCO[C@H](CN(C)S(=O)(=O)c2ccc(F)cc2)[C@@H](C)CN([C@H](C)CO)C(=O)c2cc(NS(=O)(=O)c3ccc(Cl)cc3)ccc2O1 , what call appears in the results of this test?
output: inactive

* * *

# Tested on: HepG2
# protocol_notes: cytotoxicity call (relative viability < 0.9)
# assay_setup: 10 µM
Out of some 39,000 compounds screened, about 3,300 (8.5%) were called active. Only a selection was taken, and actives are over-represented in it overall.
Use one of these outcomes when replying: 1.0 = active, 0.0 = inactive

input: Hey, what did the test say about C[C@H]1CN([C@@H](C)CO)C(=O)c2cc(NC(=O)Nc3ccc(C(F)(F)F)cc3)ccc2O[C@H]1CN(C)C(=O)NC1CCCCC1 ?
output: 0.0

* * *

# System: HepG2
# protocol_notes: cytotoxicity call (relative viability < 0.9)
# assay_setup: 10 µM
Among all 39,000 compounds or so, about 3,300 (8.5%) were called active. The sample as a whole holds a higher share of actives than the screen did.

>  <given_smiles>
C[C@@H]1CN([C@H](C)CO)C(=O)c2cc(NC(=O)Nc3cccc4ccccc34)ccc2O[C@H]1CN(C)Cc1ccc(C(=O)Nc2ccccc2N)cc1

>  <assay_system>
HepG2

>  <cytotoxicity call>
inactive

$$$$
>  <given_smiles>
C[C@H](CO)N1C[C@H](C)[C@@H](CN(C)Cc2ccc(C(=O)Nc3ccccc3N)cc2)Oc2ccc(NC(=O)Nc3cccc4ccccc34)cc2C1=O

>  <assay_system>
HepG2

>  <cytotoxicity call>
inactive

$$$$

* * *

# Test system: HepG2
# protocol_notes: cytotoxicity call (relative viability < 0.9)
# assay_setup: 10 µM
About 3,300 (8.5%) of roughly 39,000 compounds were called active. The sample as a whole holds a higher share of actives than the screen did.
Write down one outcome, taken from true (1) = active, false (0) = inactive

Check out these entries, answers already filled in.
>  <given_smiles>
C[C@H]1CN([C@@H](C)CO)C(=O)c2cc(NS(=O)(=O)c3ccccc3)ccc2O[C@@H]1CN(C)S(C)(=O)=O

>  <assay_system>
HepG2

>  <group_label>
true (1)

$$$$
>  <given_smiles>
C[C@@H]1CN([C@H](C)CO)C(=O)c2cc(NC(=O)CCN3CCOCC3)ccc2O[C@@H]1CN(C)S(=O)(=O)c1ccc(F)cc1

>  <assay_system>
HepG2

>  <group_label>
false (0)

$$$$
>  <given_smiles>
C[C@H]1CN([C@@H](C)CO)C(=O)c2cc(NS(=O)(=O)c3ccccc3)ccc2O[C@H]1CN(C)S(C)(=O)=O

>  <assay_system>
HepG2

>  <group_label>
false (0)

$$$$

input: Assay outcome for COc1ccc2c3c(n(c2c1)C)[C@H](CO)N(C[C@]13CCN(CC1)C(=O)c1ccncc1)C(=O)C1CCOCC1 : what was it?
output: false (0)

input: Next compound up: C[C@H]1CN([C@@H](C)CO)C(=O)Cc2cc(NC(=O)CCN3CCOCC3)ccc2O[C@H]1CN(C)S(=O)(=O)c1ccc(Cl)cc1
output: false (0)

input: Next record, please: C[C@H](CO)N1C[C@H](C)[C@@H](CN(C)S(C)(=O)=O)Oc2ccc(NS(=O)(=O)c3ccccc3)cc2C1=O
output: false (0)

input: // same read-out, input: Cc1noc(C)c1NC(=O)Nc1ccc2c(c1)C(=O)N([C@@H](C)CO)C[C@@H](C)[C@@H](CN(C)C(=O)NC1CCCCC1)OCCCC[C@@H](C)O2
output: false (0)

* * *

# Test system: HepG2
# protocol_notes: cytotoxicity call (relative viability < 0.9)
# assay_setup: 10 µM
Screen size: about 39,000 compounds; about 3,300 (8.5%) were called active. What follows is part of a selection rich in actives, with near analogues and random picks from the rest.
Outcome field: choose from Yes for active, No for inactive

input: In this assay, the call recorded for C[C@H]1CN([C@@H](C)CO)C(=O)c2cc(NS(=O)(=O)c3ccccc3)ccc2O[C@@H]1CN(C)Cc1ccc(-c2ccccc2)cc1 was what?
output: No

input: Next: COc1ccc(S(=O)(=O)N[C@H]2CC[C@@H](CCNC(=O)CN3CCOCC3)O[C@H]2CO)cc1
output: No

input: Moving on to the next compound: C[C@H](CO)N1C[C@H](C)[C@H](CN(C)Cc2ccc(-c3ccccc3)cc2)Oc2ccc(NS(=O)(=O)c3ccccc3)cc2C1=O
output: No

input: How about this compound: CCc1c(C(=O)OC)nnc2cc(C)nn12
output: No

input: Request: Cc1noc(C)c1S(=O)(=O)N(C)C[C@H]1OCCCC[C@@H](C)Oc2ccc(NC(=O)Nc3ccc(F)cc3)cc2C(=O)N([C@@H](C)CO)C[C@H]1C
output: No

input: Check OCC(O)C(O)CO (configuration not stated) too.
output: No

input: Next up: Cc1ccc(S(=O)(=O)N(C)C[C@@H]2OCCCC[C@@H](C)Oc3ccc(NC(=O)Nc4ccc5c(c4)OCO5)cc3C(=O)N([C@@H](C)CO)C[C@@H]2C)cc1
output: No

input: Same for OC[C@@H](O)[C@@H](O)CO
output: No

input: Check C[C@@H]1CN([C@H](C)CO)C(=O)c2cc(NS(=O)(=O)c3ccccc3)ccc2O[C@@H]1CN(C)Cc1ccc(-c2ccccc2)cc1 too.
output: No

input: One more compound: O=C(C[C@H]1CC[C@@H]2[C@H](COC[C@H](O)CN2C(=O)c2ccc(F)cc2)O1)NCCCN1CCOCC1
output: No

input: Ok, now O=C(C[C@@H]1C[C@H]2c3cc(NC(=O)NC4CCCC4)ccc3O[C@H]2[C@H](CO)O1)NCCN1CCCCC1
output: No

input: Do the same for Cc1ccc(S(=O)(=O)c2c[nH]c(=O)[nH]2)cc1 please
output: No

input: Same lookup for CC(C)CCN1CCn2c(CO)nnc2C1 , please.
output: No

input: Try this compound next: C[C@@H]1CCCCO[C@@H](CN(C)S(C)(=O)=O)[C@@H](C)CN([C@H](C)CO)C(=O)c2cc(NS(=O)(=O)c3ccc(F)cc3)ccc2O1
output: No

input: Another compound to check: Cc1ccc(S(=O)(=O)N2C[C@@H](O)COC[C@@H]3O[C@@H](CC(=O)N[C@@H]4CCN(Cc5ccccc5)C4)CC[C@H]32)cc1
output: No

input: Further, for C[C@H](CO)N1C[C@H](C)[C@@H](CN(C)CC2CCCCC2)Oc2c(NC(=O)Nc3ccccc3)cccc2C1=O ?
output: No

input: Consider next the compound C[C@@H]1CN([C@@H](C)CO)C(=O)c2cc(NS(=O)(=O)c3ccccc3)ccc2O[C@@H]1CN(C)Cc1ccc(-c2ccccc2)cc1 in the same way.
output: Yes

Hello, the source for this data is the antibiotic and cytotoxicity screens of Wong et al. (2023), in case you need it.
